# credit: paper PMC9482650

biological target: PICK1, Q9NRD5; test: holdup assay; set-up: key: below the threshold = too weak to quantify, mostly under pKd 3.1 to 4; details: plain residues with an end cap or a label only (N-terminal biotin on a linker: ado-ado)
Sequence (Q9NRD5 17-115): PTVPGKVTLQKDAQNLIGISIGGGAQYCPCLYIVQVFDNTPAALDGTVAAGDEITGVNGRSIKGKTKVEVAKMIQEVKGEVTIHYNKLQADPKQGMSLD
Quantity kind: pKd

>  <Binder>
MHIQEKGFHV [EPHA6, Q9UF33]

>  <Quantity kind>
pKd

>  <Recorded value>
4.18

$$$$
>  <Binder>
KRPEMTSSSV [MUC3B, MUC3A, Q02505;Q9H195]

>  <Quantity kind>
pKd

>  <Recorded value>
2.09

$$$$
>  <Binder>
GIKKITSTAL [RPS6KA3, P51812]

>  <Quantity kind>
pKd

>  <Recorded value>
below the threshold

$$$$
>  <Binder>
EIPAQSPTCV [FZD10, Q9ULW2]

>  <Quantity kind>
pKd

>  <Recorded value>
3.51

$$$$
>  <Binder>
AAVENKVTDL [PLXNB1, O43157]

>  <Quantity kind>
pKd

>  <Recorded value>
below the threshold

$$$$
>  <Binder>
NIAESLESLV [PTPRZ1, P23471]

>  <Quantity kind>
pKd

>  <Recorded value>
below the threshold

$$$$
>  <Binder>
PYPTADHMLA [JUP, P14923]

>  <Quantity kind>
pKd

>  <Recorded value>
below the threshold

$$$$
>  <Binder>
QKAPTKEFYA [SDC2, P34741]

>  <Quantity kind>
pKd

>  <Recorded value>
below the threshold

$$$$

Request: Query: pKd; subject: STKRKLASAV [NCF1, P14598]
Result: below the threshold

Request: Query: pKd; subject: QRPYRRGSEI [KCNJ18, B7U540]
Result: below the threshold

Request: Query: pKd; subject: AQRARSPSDV [GPR12, P47775]
Result: 3.99

Request: Query: pKd; subject: VKRNSKETVV [MARCHF3, Q86UD3]
Result: below the threshold
